system: johnsongrass (Sorghum halepense, SORHA); test: Pre-emerge test, greenhouse herbicide activity screening; format: in vivo; conditions: pre-emerge, rate 63 g ai/ha, phytotoxicity rating 0-100 at 14 days after application
Quantity kind: Pre-emerge Herbicidal Activity SORHA
Respond numerically, and do not add a unit to the figure.

Answered cases to consult:
Molecular string | Assayed system | Pre-emerge Herbicidal Activity SORHA
Cc1c(Cl)cc(F)c(-n2c(=O)cc(C(F)(F)F)n(C)c2=O)c1NC(=O)OCCc1ccccc1 | johnsongrass (Sorghum halepense, SORHA) | 10
COc1c(Cl)cc(F)c(-n2ncc(C(F)(F)F)c(C)c2=O)c1NC(=O)c1ccc2ccccc2c1 | johnsongrass (Sorghum halepense, SORHA) | 0
Cc1c(Cl)cc(F)c(-n2c(=O)cc(C(F)(F)F)n(C)c2=O)c1NC(=O)OCc1ccc(Cl)cc1 | johnsongrass (Sorghum halepense, SORHA) | 20
C#CCOc1c(Cl)cc(F)c(N2C(=O)C3=C(CCCC3)C2=O)c1N | johnsongrass (Sorghum halepense, SORHA) | 20
C#CCOc1c(Cl)cc(Cl)c(-n2nnn(CCCF)c2=O)c1N | johnsongrass (Sorghum halepense, SORHA) | 0

Dear colleague, I am looking for the recorded Pre-emerge Herbicidal Activity SORHA of the following compound: Cc1ccccc1COC(=O)Nc1c(C)c(Cl)cc(F)c1-n1c(=O)cc(C(F)(F)F)n(C)c1=O
50

Item: O=C(Nc1cc(Cl)ccc1-n1c(=O)n2n(c1=O)CCCC2)c1ccc2ccccc2c1
0

---

Below, each of the compounds is paired with its reported Pre-emerge Herbicidal Activity, phytotoxicity rating (0-100), SETVI value.
System: green foxtail (Setaria viridis, SETVI)
Experiment: Pre-emerge test, greenhouse herbicide activity screening
Type: in vivo
Conditions: 250 g ai/ha; rated 14 days after application; 0 = no damage, 100 = complete death
Description: A standard greenhouse herbicide activity screening system was used to evaluate the herbicidal efficacy and crop safety of these test compounds. […] At 14 days after application of the test materials, phytotoxicity ratings were recorded. […]
Respond numerically, and do not add a unit to the figure.

Answered cases to consult:
Compound | Value
COc1c(Cl)cc(F)c(-n2c(=O)cc(C(F)(F)F)n(C)c2=O)c1NC(=O)COCc1ccccc1 [2-89] | 100
COc1c(Cl)cc(F)c(-n2c(=O)cc(C(F)(F)F)n(C)c2=O)c1NC(=O)c1cccc(Cl)c1 [2-54] | 100
COc1c(Cl)cc(F)c(-n2c(=O)cc(C(F)(F)F)n(C)c2=O)c1NC(=O)C=Cc1ccccc1 [2-78] | 100

Shifting focus to the compound that follows.
Dear colleague, I am looking for the recorded Pre-emerge Herbicidal Activity, phytotoxicity rating (0-100), SETVI of the following compound: COc1c(Cl)cc(F)c(-n2c(=O)cc(C(F)(F)F)n(C)c2=O)c1NC(=O)c1ccc(F)cc1F [Compound 2-42]
100

---

Below, each of the compounds is paired with its reported CORN phytotoxicity rating (crop damage) value.
test system: field corn (Zea mays L., var. Dekalb 535, CORN); assay: Post-emerge test, crop safety; format: in vivo; conditions: post-emerge, 250 g ai/ha, 14 days after application, rating scale 0-100
Respond numerically, and do not add a unit to the figure.

Answered cases to consult:
Compound | Assayed system | CORN phytotoxicity rating (crop damage)
N#CCOc1c(Cl)cc(F)c(-n2c(=O)cc(C(F)(F)F)n(N)c2=O)c1NC(=O)c1ccc2ccccc2c1 | field corn (Zea mays L., var. Dekalb 535, CORN) | 45
COc1c(Cl)cc(Cl)c(-n2c(=O)cc(C(F)(F)F)n(C)c2=O)c1NC(=O)c1ccc2ccccc2c1 | field corn (Zea mays L., var. Dekalb 535, CORN) | 20
COc1c(Cl)cc(F)c(-n2c(=O)cc(C(F)(F)F)n(N)c2=O)c1NC(=O)COCc1ccccc1 | field corn (Zea mays L., var. Dekalb 535, CORN) | 75
COc1c(Cl)cc(F)c(-n2c(=O)cc(C(F)(F)F)n(C)c2=O)c1NC(=O)CSC | field corn (Zea mays L., var. Dekalb 535, CORN) | 10
COc1c(C#N)cc(F)c(-n2c(=O)cc(C(F)(F)F)n(C)c2=O)c1NC(=O)C=Cc1ccccc1 | field corn (Zea mays L., var. Dekalb 535, CORN) | 15
COc1cc2ccccc2cc1C(=O)Nc1c(OC)c(Cl)cc(F)c1-n1c(=O)cc(C(F)(F)F)n(C)c1=O | field corn (Zea mays L., var. Dekalb 535, CORN) | 30
COc1c(Br)cc(F)c(-n2c(=O)cc(C(F)(F)F)n(C)c2=O)c1N(C(=O)C=Cc1ccccc1)C(=O)C=Cc1ccccc1 [2-178] | field corn (Zea mays L., var. Dekalb 535, CORN) | 0
COc1c(Cl)cc(F)c(-n2c(=O)cc(C(F)(F)F)n(C)c2=O)c1NC(=O)CSc1ccc2ccccc2c1 | field corn (Zea mays L., var. Dekalb 535, CORN) | 10
COc1c(Cl)cc(F)c(-n2c(=O)cc(C(F)(F)F)n(C)c2=O)c1NC(=O)CSC(C)C | field corn (Zea mays L., var. Dekalb 535, CORN) | 25
COc1c(Br)cc(F)c(-n2c(=O)cc(C(F)(F)F)n(C)c2=O)c1N(C(=O)C=Cc1ccccc1)C(=O)C=Cc1ccccc1 [2-176] | field corn (Zea mays L., var. Dekalb 535, CORN) | 5

Dear colleague, I am looking for the recorded CORN phytotoxicity rating (crop damage) of the following compound: CCOC(=O)CSCC(=O)Nc1c(OC)c(Cl)cc(F)c1-n1c(=O)cc(C(F)(F)F)n(C)c1=O
15

Item: COc1c(Cl)cc(F)c(-n2c(=O)cc(C(F)(F)F)n(C)c2=O)c1NC(=O)C=Cc1ccccc1[N+](=O)[O-]
10

Item: C=Cc1ccc(C(=O)N(C(=O)c2ccc(C=C)cc2)c2c(OC)c(Br)cc(F)c2-n2c(=O)cc(C(F)(F)F)n(C)c2=O)cc1
0

Item: CCSCC(=O)Nc1c(OC)c(Cl)cc(F)c1-n1c(=O)cc(C(F)(F)F)n(C)c1=O
10

Item: COc1c(Cl)cc(F)c(-n2c(=O)cc(C(F)(F)F)n(C)c2=O)c1NC(=O)c1ccc2c(C#N)cccc2c1
40

Item: COc1c(Cl)cc(F)c(-n2c(=O)cc(C(F)(F)F)n(N)c2=O)c1NC(=O)c1ccc2ccccc2c1
75

Item: COc1c(Cl)cc(F)c(-n2c(=O)cc(C(F)(F)F)n(C)c2=O)c1NC(=O)C=Cc1cccc(Cl)c1
20

Item: COc1c(Cl)cc(F)c(-n2c(=O)cc(C(F)(F)F)n(C)c2=O)c1NC(=O)CCc1cc(C)ccc1C [2-132]
75

Item: COc1c(Br)cc(F)c(-n2c(=O)cc(C(F)(F)F)n(C)c2=O)c1NC(=O)C=Cc1ccccc1 [2-175]
10

Item: COc1c(Cl)cc(F)c(-n2c(=O)cc(C(F)(F)F)n(C)c2=O)c1NC(=O)c1ccc2ccccc2c1OC
5

---

Below, each of the compounds is paired with its reported Pre-emerge Herbicidal Activity ABUTH (phytotoxicity rating, scale 0-100) value.
tested on: velvetleaf (Abutilon theophrasti, ABUTH); assay: Pre-emerge test, greenhouse herbicide activity screening; type: in vivo; details: 250 g ai/ha; pre-emerge; rated 14 days after application; 0 = no damage, 100 = complete death
Respond numerically, and do not add a unit to the figure.

Answered cases to consult:
Compound | Assayed system | Value
COc1c(Cl)cc(F)c(-n2c(=O)cc(C(F)(F)F)n(C)c2=O)c1NS(=O)(=O)c1ccc(C)cc1 [2-26] | velvetleaf (Abutilon theophrasti, ABUTH) | 0
CCc1ccc(C(=O)Nc2c(OC)c(Cl)cc(F)c2-n2c(=O)cc(C(F)(F)F)n(C)c2=O)cc1 [2-27] | velvetleaf (Abutilon theophrasti, ABUTH) | 100
COc1c(Cl)cc(F)c(-n2c(=O)cc(C(F)(F)F)n(C)c2=O)c1N(C(=O)C=C(C)C)C(=O)C=C(C)C [2-8] | velvetleaf (Abutilon theophrasti, ABUTH) | 100
COc1c(Cl)cc(F)c(-n2c(=O)cc(C(F)(F)F)n(C)c2=O)c1N(C)C [Compound 1-11] | velvetleaf (Abutilon theophrasti, ABUTH) | 100
CCc1ccc(C(=O)Nc2c(OCC#N)c(Cl)cc(F)c2-n2c(=O)cc(C(F)(F)F)n(C)c2=O)cc1 [2-28] | velvetleaf (Abutilon theophrasti, ABUTH) | 100
O=c1cc(C(F)(F)F)[nH]c(=O)n1-c1c(F)cc(Cl)c(O)c1[N+](=O)[O-] [Compound 1-2] | velvetleaf (Abutilon theophrasti, ABUTH) | 10
COc1c(Cl)cc(F)c(-n2c(=O)cc(C(F)(F)F)n(C)c2=O)c1NC(C)=O [2-1] | velvetleaf (Abutilon theophrasti, ABUTH) | 100

Shifting focus to the compound that follows.
Dear colleague, I am looking for the recorded Pre-emerge Herbicidal Activity ABUTH (phytotoxicity rating, scale 0-100) of the following compound: C=Cc1ccc(C(=O)Nc2c(OC)c(Cl)cc(F)c2-n2c(=O)cc(C(F)(F)F)n(C)c2=O)cc1 [2-31]
100
